- assay: label from the status in PepcDB records
measure: protein production

>>> result("MTRSERKPLLMLMVNMFVVMMGIGLVIPILPYYIEAFGASSVELGLLIAIFSFMQFLLAPFWGRLSDKVGRKPLIAVGMFGFAVAEFIFAFATQFWMLFVSRILAGAFGSAVMPAAMAYVSDRTSEEKRGHGMGLLGASMALGIVVGPGIGGWLAEFSLATPFLFAGFAASFAAIFSLLWLPESLPLEKRKTEVEPVNQFVQMWQAVRSPIGFLLFLVFGLSFGLANFQTIFGIFALHRFHYNPSEVGFIMVLTGIVGAIAQGSLVGRLTERYGEEKVVLGSLSLSGIGFLIMMLAFNYWTVIATTCLFFLGNSILRPAVQSFLSKMAGDQQGMIMGLNNSILSLGNVVGALLAGLLFEWNMFLPYTVGAFVMFASLGATFRWLSKRASQGKHPEKSSP")
"failed"
>>> result("MKIGVYGASGRIGKLLLEELKGGYKGLALSSVFVRQKCETDFSSFSHAPLVTNDLKAFVRACECVIDFSLPKGVDNLLEALLECPKILVSGTTGLEKETLEKMQQLALKAPLLHAHNMSIGIMMLNQLAFLTSLKLKDADIEIIETHHNLKKDIPSGTALSLYETCAKARGYDEKNALITHREGLRSKESIGIAALRGGDVAGKHTIGFYLEGEYIELSHTATNRSIFAKGALEVALWLKDKAAKKYEINEMFG")
"failed"
>>> result("MPETYIITPNLNGVSFLEVYFRSLLRQTYEDFRVVFIDNGSSDGSVDFIKSNFSEYLGDRIILIENHENLGFAASNNQGIRIALDDPQCRYVVCLNNDTEVLPDFIENLILAAGDDERVGSVQARMIWGQNRKLIDSAGLEYSLNGLGFNRGAYEPVENFNERARILGCCAGACLYRREALEDVEVDAEYFDEDFFAYYEDFDLALRLRSAGWDSLYAPDATVYHYKGGTNPFISDFTVYHNWRNYTWTFIKNMPADLLLMCLPLFVLTEIIQVLLNIKRGKLIILRAKYDAYRGLGRVIRKRRALKRVPESEIKEYLTMRWSVKVPSPQED")
"failed"
